assay_remarks: Average score of NAC and NAL depletion and phototoxicity or photoallergy determination, UV detection
applied_conditions: average of NAC and NAL depletion
In this section we review reported Average score (%) without light irradiation values for a set of molecules.

The examples below pair each entry with its known result.
| molecule | data_value |
| --- | --- |
| CCO | 0.6% |
| Cc1ccc(C=C2C(=O)C3(C)CCC2C3(C)C)cc1 (racemic) | 0.3% |

Kindly review the next molecule as well.
(Q) Tell me the measured Average score (%) without light irradiation of CC(C)OC(=O)C(C)(C)Oc1ccc(C(=O)c2ccc(Cl)cc2)cc1 , please.
(A) 0.0%

----------
assay_remarks: NAC depletion under and without ultraviolet irradiation, HPLC with UV detection (281 nm)
Labelling: Difference in depletion (under light irradiation - without light irradiation) NAC (%) reported below 2% becomes class 1; at or above becomes class 0.

| compound | classification |
| --- | --- |
| COc1c2ccoc2cc2oc(=O)ccc12 | class 0 |
| CC(O)CCO (centres unmarked) | class 1 |
| Cc1ccc(C=C2C(=O)C3(C)CCC2C3(C)C)cc1 (racemic) | class 0 |
| O=C([O-])Cc1ccccc1Nc1c(Cl)cccc1Cl.[Na+] | class 0 |
| CCO | class 1 |

(Q) Is it true that Difference in depletion (under light irradiation - without light irradiation) NAC (%) reported for CC(C)O is less than 2%?
(A) class 1

(Q) Given the entry [Na+].[O-][n+]1ccccc1[S-] , would its reported Difference in depletion (under light irradiation - without light irradiation) NAC (%) be below 2%?
(A) class 0

(Q) Strictly below 2%: is that where Difference in depletion (under light irradiation - without light irradiation) NAC (%) of C=CC1CN2CCC1CC2C(O)c1ccnc2ccc(OC)cc12.Cl.O.O (centres unmarked) sits?
(A) class 0

The measured values listed here are drawn from patent US20220364989A1.
